assay-method-text: Pharmacokinetic test in Balb/c mice
Type: in vivo
condition-notes: mouse, whole blood (dried blood spots); female Balb/c mice, PO, 10 mg/kg, DBS samples; read-out: Cmax

>  <compound>
Cc1ccc2c(Nc3cccc(Cl)c3F)nccc2c1NC(=O)c1cccc2c(N)ncnc12 [Compound 1]

>  <result-units>
ng/mL

>  <Cmax>
8240

$$$$

###

Test system: human melanoma cell A375 (BRAF-V600E mutation)
assay-method-text: Cancer cell proliferation inhibition assay, A375
Assay type: cell-based
condition-notes: A-375, 72 h incubation, Cell Titer Glo

>  <compound>
Cc1ccc2c(Nc3cc(C#N)ccc3F)nccc2c1NC(=O)c1cccc2c(N)ncnc12

>  <result-units>
nM

>  <IC50>
167

$$$$
>  <compound>
Cc1ccc2c(Nc3ccc(F)cc3F)nccc2c1NC(=O)c1cccc2c(N)ncnc12

>  <result-units>
nM

>  <IC50>
184

$$$$
>  <compound>
Cc1ccc2c(C(O)c3ccccc3Cl)nccc2c1NC(=O)c1cccc2c(N)ncnc12 (centres unmarked)

>  <result-units>
nM

>  <IC50>
70.7

$$$$
>  <compound>
Cc1ccc2c(Nc3cccc(Cl)c3F)nccc2c1NC(=O)c1nccc2c(N)ncnc12

>  <result-units>
nM

>  <IC50>
166

$$$$
>  <compound>
Cc1ccc2c(Nc3ccc(CN(C)C)c(C(F)(F)F)c3)nccc2c1NC(=O)c1cnc2c(N)ncnn12

>  <result-units>
nM

>  <IC50>
49.1

$$$$
>  <compound>
Nc1ncnc2c(C(=O)Nc3c(F)ccc4c(Nc5cccc(Cl)c5F)nccc34)cccc12

>  <result-units>
nM

>  <IC50>
128

$$$$
>  <compound>
Cc1ccc2c(Nc3c(F)cc(F)cc3F)nccc2c1NC(=O)c1cccc2c(N)ncnc12

>  <result-units>
nM

>  <IC50>
58.8

$$$$
>  <compound>
Cc1ccc2c(Nc3ccc(N(C)C)nc3)nccc2c1NC(=O)c1cccc2c(N)ncnc12

>  <result-units>
nM

>  <IC50>
85

$$$$
